- target-of-assay: Pyruvate dehydrogenase kinase (Homo sapiens, UniProt Q15119+Q15120+Q16654+Q15118)
- run-description: Binding affinity to pyruvate dehydrogenase kinase (unknown origin) by VER-00160364 probe based fluorescence polarization assay
measured-attribute: IC50 (nM)
Express the result in nM but write the number alone.

INSERT INTO assay_data (molecule, unit_symbol, value_observed) VALUES
  ('Cc1cc(S(=O)(=O)N2CCC(F)(F)CC2)cnc1-c1ccc2c(c1)CC[C@H](C)N2C(=O)c1ccc(O)cc1O', 'nM', 100);

Recorded IC50 of `Cc1cnc(OCCN(C)C)nc1-c1ccc2c(c1)CC[C@H](C)N2C(=O)c1ccc(O)cc1O` , please.
100

Similarly, `Cc1cc(S(=O)(=O)NCc2ccccn2)cnc1-c1ccc2c(c1)CC[C@H](C)N2C(=O)c1ccc(O)cc1O` ?
10

Query Cc1cnc(Cl)nc1-c1ccc2c(c1)CCC(C)N2C(=O)c1cc(Cl)c(O)cc1O (stereo not given) next
100

Moving on to `Cc1c(-c2ccc3c(c2)CC[C@H](C)N3C(=O)c2ccc(O)cc2O)ccc2[nH]ncc12`
1000

Entry `C[C@H]1CCc2cc(-c3nncc4ccccc34)ccc2N1C(=O)c1ccc(O)cc1O` please
100

Continue with CC1CCc2cc(C(=O)N(C)CC(F)(F)F)ccc2N1C(=O)c1cc(Cl)c(O)cc1O (stereo not given)
100

Can you check `Cc1csc2ncnc(-c3ccc4c(c3)CC[C@H](C)N4C(=O)c3ccc(O)cc3O)c12` next?
100

Query `C[C@H]1CCc2ccccc2N1C(=O)c1ccc(O)cc1O` next
100

Follow-up item: `COCCNc1ncc(C)c(-c2ccc3c(c2)CC[C@H](C)N3C(=O)c2ccc(O)cc2O)n1`
100

Query `Cc1cc(-c2ccc3c(c2)CC[C@H](C)N3C(=O)c2ccc(O)cc2O)cnc1N` next
100

# iterate: `C[C@H]1CCc2cc(C(=O)N(C)Cc3ccc[n+](C)c3)ccc2N1C(=O)c1ccc(O)cc1O`
100

# iterate: `Cc1cccnc1-c1ccc2c(c1)CCCN2C(=O)c1cc(C(F)(F)F)c(O)cc1O`
10000

Now consider `COc1ccc2c(c1)CCCN2C(=O)c1ccc(O)cc1O` and answer again.
100

// repeat for `O=C(c1ccc(O)cc1O)N1CCCc2cc(-c3ncccc3C(F)(F)F)ccc21` and report
1000
